These entries and their values trace back to patent US20240116985A1.

I'd appreciate it if you could supply NanoBRET Abs IC50 (uM); B-cat-Halo / TCF4-Luc in HEK293 cells values for the items below.
Molecular target: T1, B-cat-Halo (UniProt P35222 1-781)
T1 sequence (looked up): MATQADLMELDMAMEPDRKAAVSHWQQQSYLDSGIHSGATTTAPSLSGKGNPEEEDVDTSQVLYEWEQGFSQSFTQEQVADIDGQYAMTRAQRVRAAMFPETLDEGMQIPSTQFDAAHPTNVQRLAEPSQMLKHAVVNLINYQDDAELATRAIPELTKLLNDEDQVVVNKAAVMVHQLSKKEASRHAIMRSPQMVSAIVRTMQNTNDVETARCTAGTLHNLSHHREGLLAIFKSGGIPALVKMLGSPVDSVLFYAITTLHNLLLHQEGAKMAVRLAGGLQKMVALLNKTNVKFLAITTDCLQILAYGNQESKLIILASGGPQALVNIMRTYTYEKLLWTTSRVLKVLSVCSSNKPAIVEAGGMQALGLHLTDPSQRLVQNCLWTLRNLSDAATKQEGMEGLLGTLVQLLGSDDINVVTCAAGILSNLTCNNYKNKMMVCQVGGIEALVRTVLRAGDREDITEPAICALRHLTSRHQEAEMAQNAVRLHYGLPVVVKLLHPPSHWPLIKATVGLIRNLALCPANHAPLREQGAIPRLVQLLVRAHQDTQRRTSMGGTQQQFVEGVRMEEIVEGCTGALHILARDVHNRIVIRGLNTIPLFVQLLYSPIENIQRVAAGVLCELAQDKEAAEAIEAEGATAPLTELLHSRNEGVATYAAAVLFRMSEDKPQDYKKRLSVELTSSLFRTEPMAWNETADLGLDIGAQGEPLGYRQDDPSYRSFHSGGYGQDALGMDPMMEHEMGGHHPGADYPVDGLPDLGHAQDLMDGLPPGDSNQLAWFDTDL
Test: cell-based or functional assay
Starred links: 1 amine or outer side, 2 acyl side, 3 side chain; linkers in the order of their positions; H or OH if unused. Positions of bridges follow the written chain, without caps; N, C: chain ends. Non-standard residues stand in square brackets, D forms with d. Primed or numbered codes have the meaning given here. PyrS2″ = (S)-3-amino-1-((pent-4-en-1-yloxy)carbonyl)pyrrolidine-3-carboxylic acid (stapling residue), C=CCCCOC(=O)N1CC[C@@](N[*:1])(C(=O)[*:2])C1; B5(4) = 2,2-bis(4-pentenyl)glycine = 2-amino-2-(pent-4-en-1-yl)hept-6-enoic acid (stitching residue), C=CCCCC(CCCC=C)(N[*:1])C(=O)[*:2]; PyrS2 = (S)-3-amino-1-((pent-4-en-1-yloxy)carbonyl)pyrrolidine-3-carboxylic acid, C=CCCCOC(=O)N1CC[C@@](N[*:1])(C(=O)[*:2])C1; Phe(2-Cl) = N[C@@H](Cc1ccccc1Cl)C(=O)O; Bta = N[C@@H](Cc1csc2ccccc12)C(=O)O; αAllylPro = C=CC[C@@]1(C(=O)O)CCCN1; tBuAla = CC(C)(C)C[C@H](N)C(=O)O; 3Thi = N[C@@H](Cc1ccsc1)C(=O)O; Cha = N[C@@H](CC1CCCCC1)C(=O)O; S8 = C=CCCCCCC[C@](C)(N)C(=O)O; Thr(ol) = C[C@@H](O)[C@H](N)CO
Give bare numbers, in µM.

Some binders with known NanoBRET Abs IC50 (uM); B-cat-Halo / TCF4-Luc in HEK293 cells results, for comparison:
* Ac-[αAllylPro]D[tBuAla][B5(4)]DTAAFT[PyrS2″][Phe(2-Cl)][Bta][Thr(ol)] (staple 1-4, 4-11) [I-1309] | 28.6
* Ac-[αAllylPro]D[tBuAla][B5(4)]DDAAFT[S8][Phe(2-Cl)][Bta][Thr(ol)] (staple 1-4, 4-11) [I-1308] | 11.9
* Ac-[αAllylPro]D[tBuAla][B5(4)]DDAAFF[PyrS2][3Thi][Bta][Thr(ol)] (staple 1-4, 4-11) [I-1303] | 9.1
* Ac-[αAllylPro]D[tBuAla][B5(4)]DDAAFL[PyrS2][3Thi][Bta][Thr(ol)] (staple 1-4, 4-11) [I-1302] | 21.4
* Ac-[αAllylPro]D[Cha][B5(4)]DDAAFL[PyrS2″][Phe(2-Cl)][Bta][Thr(ol)] (staple 1-4, 4-11) [I-1307] | 38.8

Fill in NanoBRET Abs IC50 (uM); B-cat-Halo / TCF4-Luc in HEK293 cells for each of the 2 binders listed.
1. Ac-[αAllylPro]D[tBuAla][B5(4)]DDAAFF[PyrS2″][Phe(2-Cl)][Bta][Thr(ol)] (staple 1-4, 4-11) [I-1311]
2. Ac-[αAllylPro]N[tBuAla][B5(4)]DDAAFL[PyrS2][3Thi][Bta][Thr(ol)] (staple 1-4, 4-11) [I-1304]

Reply:
20.6
33.6
